Hello, the source for this data is the RNAGym collection of RNA variant scans (doi:10.7554/elife.90254), in case you need it.

B1: LINE1-full (parent)
chain: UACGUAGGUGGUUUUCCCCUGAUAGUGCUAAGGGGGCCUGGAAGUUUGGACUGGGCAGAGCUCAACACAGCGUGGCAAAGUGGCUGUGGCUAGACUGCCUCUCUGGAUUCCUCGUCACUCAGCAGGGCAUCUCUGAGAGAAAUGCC

variants of: B1; assay: self-cleavage, relative activity (ratio to wild type); higher = more cleavage; in vitro, sequencing; the parent is a self-cleaving ribozyme
Please mark Y if the recorded self-cleavage is equal to or greater than 0.3, and N if it falls below.

input: Confirm if self-cleavage reported for the variant U52G C101U is 0.3 or above.
output: Y

input: Decide: self-cleavage of A6U U91C >= 0.3?
output: Y

input: Can U20C A64U be said to have self-cleavage at or above 0.3?
output: Y

input: Given G49U A94U , state whether its self-cleavage is at least 0.3.
output: Y

input: Is the recorded value of self-cleavage equal to or greater than 0.3 for this variant? U14C G27A
output: Y

input: Check the entry A65U G127U : does self-cleavage equal or exceed 0.3?
output: N

input: Please check the record U100C U130A and state if its self-cleavage is at or above 0.3.
output: Y

input: Test whether the variant U26G A107G records self-cleavage of 0.3 or higher.
output: N

input: Is self-cleavage at least 0.3? Consider G88U A138G
output: N

input: Could you verify whether the entry U81A U108C shows self-cleavage of no less than 0.3?
output: Y

input: Threshold query (self-cleavage >= 0.3) on U13A A59G
output: N

input: Item U26C U130C with self-cleavage of 0.3 or above?
output: Y

input: Assess whether reported self-cleavage for G58A U81G sits at 0.3 or higher.
output: N

input: Reported self-cleavage at or above 0.3? C61A A79G
output: N

input: Textbook exercise: given the entry C19G U26C , state whether its self-cleavage is greater than or equal to 0.3.
output: Y

input: Form field: self-cleavage at least 0.3? Entry: U13A A124U
output: Y

input: Tell me whether self-cleavage is at least 0.3 here: U62G A67G
output: N

input: Please tell me: is the variant U29A U73A at or over 0.3 in terms of self-cleavage?
output: Y

input: Tell me whether self-cleavage is at least 0.3 here: U12G C145G
output: Y

input: // inclusive: self-cleavage at least 0.3? input: A78G G106A
output: Y

input: Identify whether the reported self-cleavage of the following variant is 0.3 or greater: U9A U87C
output: N

input: Reported self-cleavage reaches at least 0.3 for A79C U85C ?
output: Y
